# System: HT29 colon
# test.protocol: NCI-60 one-dose screen, 48 h
# condition.parameters: 10 µM unless noted
Compounds without any hit were thinned out: in the full panel of roughly 83,000, 20% have a hit. Active and inactive are the calls of the source. The calls were made as follows: active = growth percent below 10; inactive = the rest.
Lab note: assign the record to one of label 1 for active, label 0 for inactive

Request: Dear all, I need the recorded test outcome for CC(=O)Nc1nc2c(s1)CC[C@@]1(C)C2=CC[C@H]2[C@@H]3CC[C@H](O)[C@@]3(C)CC[C@@H]21 , thank you.
Result: label 0

Request: Dear all, I need the recorded test outcome for CC(=O)O[C@H](C[C@H](C(C)C)N(C)C(=O)[C@@H](NC(=O)[C@H]1CCCCN1C)C(C)C)c1nc(C(=O)N[C@@H](Cc2ccccc2)C[C@H](C)C(=O)O)c(C(C)C)s1 , thank you.
Result: label 1

Request: Dear all, I need the recorded test outcome for NC(N)=N/N=C\c1c[nH]c2ccc(Br)cc12 , thank you.
Result: label 0

Request: Dear all, I need the recorded test outcome for CCCCCCCOC(C(=O)OCCN(CC)CC)(c1ccccc1)c1ccccc1 , thank you.
Result: label 0

Request: Dear all, I need the recorded test outcome for C[C@@]1(CCCCCCCCCc2ccc(O)cc2)C[C@]2(C)OC(=O)C[C@@H]2OO1 , thank you.
Result: label 0

---
Request: Dear all, I need the recorded test outcome for CN(C)CC(C(=O)Cc1ccccc1)c1ccccc1 (stereo not drawn) , thank you.
Result: label 0

Request: Dear all, I need the recorded test outcome for CC(=O)O[C@H](C[C@H](C(C)C)N(C)C(=O)[C@@H](NC(=O)[C@H]1CCCCN1C)C(C)C)c1cccc(C(=O)N[C@@H](Cc2ccccc2)C[C@H](C)C(=O)O)n1 , thank you.
Result: label 1

Request: Dear all, I need the recorded test outcome for O=C1NC(=O)C(=Cc2cccn2CCCCCn2c3ccccc3c(=O)c3ccccc32)C(=O)N1 , thank you.
Result: label 0
